melting point values by entry

1) CN1CC(CN=[N+]=[N-])CC2c3cccc4c3c(cn4C)CC21 (configuration not stated)
168 to 169 °C
2) CNC(=O)c1sc2cnccc2c1Oc1ccc(COC)cc1
163 to 164 °C
3) COC(=O)C(Oc1ccc(F)cc1)c1ccc(Oc2ccc(S(C)(=O)=O)cc2)cc1 (configuration not stated)
135 to 137 °C
4) O=C1COc2cc(OCCCCl)ccc2N1
95 °C
5) CC(C)c1ccc(N(Cc2cnn(CCN(C)C)c2)C(=O)C2CCCc3c(O)cccc32)cc1 (configuration not stated)
92 °C

Data request: // melting point lookup, key: N#CCCNC(=O)c1cccc(Br)c1
Data returned: 100 to 101 °C

Data request: Name the reported melting point value associated with the compound Fc1ccc(F)c(C(Sc2ccc(Cl)cc2)c2ccc(CSc3ccc(Cl)cc3)cn2)c1 (configuration not stated)
Data returned: 87 to 88 °C

Data request: Requested read-out: melting point. Entry: O=C(O)C1=Cc2cc(-c3ccc(Br)cc3)ccc2OC1C(F)(F)F (configuration not stated)
Data returned: 215 to 216 °C

Data request: Report melting point for O=S1(=O)N=CN(C2CC2)c2ccc(F)c(Cl)c21 please.
Data returned: 260 to 263 °C

Data request: Bench note: what melting point did CC(=O)SCCNC(=O)[C@H](CSC(C)=O)NC(=O)C(C)C show?
Data returned: 125 to 127 °C

Data request: So what's the measured melting point for this one? O=C(O)CCC=C(Cl)Cl
Data returned: 117 to 118 °C

Data request: Please report the recorded melting point for Nc1ccc2sc3ccccc3c(=O)c2c1 .
Data returned: 227 to 229 °C

Data request: Requested read-out: melting point. Entry: CC(C)CN1CCC(CNC(=O)c2cc(Cl)c(N)[nH]c2=O)CC1
Data returned: 128 to 133 °C
